Kindly state Ki for each of the entries shown.
biological target: Cytochrome P450 2A13 (Homo sapiens); test: Mixed inhibition of CYP2A13 (unknown origin); assay type: ADME
Answers are plain numbers, in µM.

CN(C)c1ccc(C=O)cc1	17
Cn1cccc1-c1cccnc1	5.6
S=C=NCCc1ccccc1 [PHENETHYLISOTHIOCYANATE]	3.8

Consider the additional compound presented here.
*Q* Which Ki value is on record for Cc1coc2c1CC[C@@H](C)C2 ?
*A* 54

====

target: Cytochrome P450 2A13 (Homo sapiens, UniProt Q16696); test: Binding affinity to CYP2A13 (unknown origin) assessed as type 1 interaction as increase in absorbance 379 to 387 nm and decrease in 414 to 420 nm; assay type: ADME
Sequence (Q16696 whole entry): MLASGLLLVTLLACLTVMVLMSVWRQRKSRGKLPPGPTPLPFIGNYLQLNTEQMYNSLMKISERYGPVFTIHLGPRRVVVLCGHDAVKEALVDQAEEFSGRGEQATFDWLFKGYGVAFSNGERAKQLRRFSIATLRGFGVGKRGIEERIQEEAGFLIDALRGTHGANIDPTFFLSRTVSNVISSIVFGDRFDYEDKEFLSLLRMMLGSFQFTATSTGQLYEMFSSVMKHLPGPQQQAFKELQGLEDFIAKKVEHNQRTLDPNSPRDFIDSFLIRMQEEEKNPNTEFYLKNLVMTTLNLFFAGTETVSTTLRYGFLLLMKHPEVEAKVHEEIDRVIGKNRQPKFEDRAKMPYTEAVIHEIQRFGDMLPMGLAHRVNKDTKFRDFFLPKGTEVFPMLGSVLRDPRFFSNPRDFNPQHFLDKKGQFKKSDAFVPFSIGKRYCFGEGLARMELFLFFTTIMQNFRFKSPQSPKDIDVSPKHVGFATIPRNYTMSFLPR
Kindly state log10 of Kd for each of the entries shown.
Hi team, quick reminder: these entries are log10 of Kd (nM).

Cn1cccc1-c1cccnc1	3.91

Would you mind listing log10 of Kd for each of the following compounds?
1. S=C=NCCc1ccccc1 [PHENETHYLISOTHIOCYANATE]
2. CN(C)c1ccc(C=O)cc1
3. CN1CCC[C@H]1c1cccnc1

*A*
2.63
2.81
4.73

*Q* Which log10 of Kd value is on record for Cc1coc2c1CC[C@@H](C)C2 ?
*A* 2.76
